test: chemical genetic growth profiling, strain panel (AID 1159580);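 also: tested at 20 µM; growth read once vehicle control cultures reached saturation at 30 °C; 1 = growth at the plate median or of vehicle wells; lower values mean less growth of the strain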; settings: S. cerevisiae deletion strains, growth OD, locus YJL134W, strain LCB3
Hit rate of the full screen: of about 5,500 compounds, about 2,000 (36%) were called active. Roughly 18% stayed inconclusive and do not appear here. Rule as the data show it: active = normalized growth mostly below about 0.91 (no sharp cut-off); inconclusive = no clear call, values can overlap the other calls; inactive = mostly above about 0.92. The list shows a part of the results.
Valid outcomes are listed here; reply with one: active, inactive

Solved cases (4 shown):
> print(dat)
                                   compound     group
1  COc1ccc(/C=C/c2cc(O)cc(O[C@@H]3O[C@H](CO)[C@@H](O)[C@H](O)[C@H]3O)c2)cc1  inactive
2             CCCc1ncc(C[n+]2ccccc2C)c(N)n1  inactive
3  C[C@H]1C(=O)CCC2[C@]3(C)CC[C@@]4(C)C5CC(C)(C)CC[C@]5(C)CC[C@]4(C)C3CC[C@@]21C (stereo partly specified)  inactive
4  Cc1ccc(O)c(C(CCN(C(C)C)C(C)C)c2ccccc2)c1 (stereo unspecified)  inactive

Now for a further compound.
Field: outcome | Entry: COP(=O)(NC(C)=O)SC (stereo unspecified)
inactive

---

assay: chemical genetic growth profiling, strain panel (AID 1159580);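 also: tested at 20 µM; growth read once vehicle control cultures reached saturation at 30 °C; 1 = growth at the plate median or of vehicle wells; lower values mean less growth of the strain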; settings: S. cerevisiae deletion strains, growth OD, locus YJR016C, strain ILV3, hits give low values
Out of some 5,500 compounds screened, about 2,000 (36%) were called active. Roughly 18% stayed inconclusive and do not appear here. This is one part of the list.
Entries and their measured normalized growth follow.
Just the number, please, no unit attached.

Worked cases, normalized growth given:
> print(dat)
                                   compound  observed.result
1    CCOC(=O)c1ccc(N=Cc2cc(Cl)cc(Cl)c2O)cc1            0.963
2  Cc1oc(C(C)(C)C)cc1-c1cc(NC(=O)c2ccccc2)n[nH]1            0.981
3            O=C(Nc1ccc(F)cc1)c1cc(Br)ccc1O            0.923

Name the recorded normalized growth for CC(C)Sc1c(Cl)cccc1NC(=O)Nc1cccc(C(F)(F)F)c1 .
0.984

Entry under review: N#CC(C(=O)Nc1cccc(C(F)(F)F)c1)C(=S)Nc1ccccc1Cl (configuration not stated) . Reported normalized growth?
0.978

I would be grateful if you could share the reported normalized growth for O=S(=O)(Nc1cc(C(F)(F)F)cc(C(F)(F)F)c1)c1ccc(Cl)s1 .
0.921

Consider the compound O=C(Nc1cc(Cl)cc(Cl)c1)c1cc(Cl)ccc1O and give its measured normalized growth.
0.924

---

assay: chemical genetic growth profiling, strain panel (AID 1159580);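 also: tested at 20 µM; growth read once vehicle control cultures reached saturation at 30 °C; 1 = growth at the plate median or of vehicle wells; lower values mean less growth of the strain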; settings: S. cerevisiae deletion strains, growth OD, locus YPL256C, strain CLN2, hits give low values
Among all 5,500 compounds or so, about 2,000 (36%) were called active. Another 18% or so got no clear call; they are omitted. Some of the results follow.
Hi! Could you tag entries with normalized growth below 1 as true (1), and those at or above as false (0)? Much appreciated.

For orientation, consider the following solved cases.
> print(dat)
                                   compound     group
1  C[C@]12CCc3occc3C1CC[C@@]13C[C@@H](CCC12)[C@@](O)(CO)C3 (stereo not given in full)  true (1)
2  CCCN(CCC)c1c([N+](=O)[O-])cc(C(F)(F)F)cc1[N+](=O)[O-]  true (1)
3  COc1ccc(Oc2ccc([N+](=O)[O-])cc2C(=O)O/N=C(/N)c2ccc(C(F)(F)F)cc2)cc1  true (1)
4    FC(F)(F)c1c2c(nc3cc(-c4ccco4)nn13)CCC2  true (1)
5          CCOC(=O)c1cnc(-c2ccccn2)[nH]c1=O  true (1)

hey, is normalized growth for O=C1C=CC(=O)c2c(O)cccc21 lower than 1 or not?
true (1)

Record O=C(O)C1=C(CSc2nnnn2CS(=O)(=O)O)CS[C@@H]2C(NC(=O)[C@H](O)c3ccccc3)C(=O)N12 (stereo not given in full) : is its normalized growth strictly below 1?
false (0)

Problem: For the compound COC(=S)Nc1cc(Cl)cc(Cl)c1 , is normalized growth under 1?
true (1)

Please state whether normalized growth is below 1 for Cc1cc2nc3c(Cl)c(O)c4ccccc4c3nc2cc1C
true (1)

Does the reported normalized growth of the following compound sit strictly below 1? C[N+]1(C)CCCC(OC(=O)C(O)(c2ccccc2)c2ccccc2)C1 (stereo not given)
false (0)
